Reported LD50 is given for each of the following compounds.
- Experimental Details: Lethal dose in mice (LD50)
- Format: toxicity, organism-based
- Details: mouse, in vivo
Could you give me the number in mg/kg? Just the number is fine.

Reference set, count: 5
                                        mol  observed
0              Br.Br.NCC(=O)NCCSSCCNC(=O)CN      1500
1               Br.CC(C)(C)C(=O)SCCNC(=O)CN      1200
2          Br.Br.NCCCC(=O)NCCSSCCNC(=O)CCCN       300
3  NCC(=O)NCCSSCCNC(=O)CN.O=C(O)C(F)(F)F.O=C(O)C(F)(F)F      1500
4                      Br.CC(=O)NCCSC(=O)CN       600

Give the measured LD50 of `Br.CC(=O)SCCNC(=O)CCCN` .
800

Quick one: LD50 for `Br.CC(=O)SCCNC(=O)CN` ?
1500

Value lookup for LD50; key = `Br.CCC(=O)SCCNC(=O)CN`
1500

Form field: reported LD50 of `NCCCNCCSP(=O)(O)O`
950
